biological target: UniProtKB Q1A7N1; test: In Vitro Canine TRPM8 Functional Assay (Ca2+ fluorescence, icilin activation); assay type: cell-based; conditions: HEK293 cells stably expressing canine TRPM8; icilin activation; eight-point dose-response; read-out: IC50
Sequence (Q1A7N1 1-1104): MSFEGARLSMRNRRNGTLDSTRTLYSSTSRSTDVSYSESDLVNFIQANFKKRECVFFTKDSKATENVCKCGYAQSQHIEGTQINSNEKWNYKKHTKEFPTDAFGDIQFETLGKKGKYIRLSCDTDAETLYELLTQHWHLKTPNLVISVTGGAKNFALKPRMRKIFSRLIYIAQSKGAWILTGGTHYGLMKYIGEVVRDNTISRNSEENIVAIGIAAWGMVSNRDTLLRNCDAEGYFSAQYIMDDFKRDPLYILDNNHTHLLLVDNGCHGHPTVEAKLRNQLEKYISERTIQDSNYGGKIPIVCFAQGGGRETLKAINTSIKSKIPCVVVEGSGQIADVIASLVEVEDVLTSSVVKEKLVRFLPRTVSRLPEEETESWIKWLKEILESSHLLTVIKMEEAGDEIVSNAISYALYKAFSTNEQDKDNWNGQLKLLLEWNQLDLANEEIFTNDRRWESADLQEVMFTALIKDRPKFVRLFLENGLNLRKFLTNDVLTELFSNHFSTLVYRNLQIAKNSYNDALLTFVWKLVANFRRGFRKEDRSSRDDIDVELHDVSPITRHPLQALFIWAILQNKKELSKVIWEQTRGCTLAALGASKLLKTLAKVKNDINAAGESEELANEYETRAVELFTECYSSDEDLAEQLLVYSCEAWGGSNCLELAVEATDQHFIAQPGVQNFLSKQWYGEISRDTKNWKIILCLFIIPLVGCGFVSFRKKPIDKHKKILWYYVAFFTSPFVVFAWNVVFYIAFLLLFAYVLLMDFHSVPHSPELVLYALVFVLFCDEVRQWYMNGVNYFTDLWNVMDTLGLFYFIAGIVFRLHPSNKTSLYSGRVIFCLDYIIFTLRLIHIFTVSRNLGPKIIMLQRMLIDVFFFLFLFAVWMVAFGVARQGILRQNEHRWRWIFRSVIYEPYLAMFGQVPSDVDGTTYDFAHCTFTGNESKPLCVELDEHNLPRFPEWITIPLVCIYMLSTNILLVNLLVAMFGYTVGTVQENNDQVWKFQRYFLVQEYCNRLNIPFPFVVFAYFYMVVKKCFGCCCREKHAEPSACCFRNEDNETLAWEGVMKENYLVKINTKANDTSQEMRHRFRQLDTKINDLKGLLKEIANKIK
pIC50: −log10 of the molar value.
If the reported pIC50 equals or exceeds 8, assign MET. If not, assign NOT MET.

CCCCCCN(c1sc2ccccc2c1Br)S(=O)(=O)c1ccc(C(=O)O)cc1 | MET
COC(=O)c1ccc(S(=O)(=O)N(Cc2ccc(F)c(C(F)(F)F)c2)c2sc3ccccc3c2C(C)C)cc1 | NOT MET
O=S(=O)(c1ccc(Cl)nc1)N(Cc1ccc(F)c(C(F)(F)F)c1)c1cc2ccccc2s1 | NOT MET
Cc1c(N(Cc2ccc(OC(F)(F)F)cc2)S(=O)(=O)c2ccc(C(=O)O)c(F)c2)sc2ccccc12 | MET
Cc1c(N(Cc2cccc(OC(F)(F)F)c2)S(=O)(=O)CCC(C)(C)O)sc2ccccc12 | NOT MET

Hi team, for CCS(=O)(=O)N(Cc1ccc(F)c(C(F)(F)F)c1)c1sc2ccccc2c1CN(C)C , is the recorded pIC50 at or above 8?
NOT MET

Hi team, for O=C(O)c1ccc(S(=O)(=O)N(Cc2ccc(OC(F)(F)F)cc2)c2sc3ccccc3c2C2CCC2)cc1 , is the recorded pIC50 at or above 8?
MET

Hi team, for Cc1c(N(Cc2ccc(F)c(C(F)(F)F)c2)S(=O)(=O)CCCCO)sc2ccccc12 , is the recorded pIC50 at or above 8?
MET

Hi team, for O=S(=O)(c1ccccc1)N(CC1CCCCC1)c1sc2ccccc2c1Cl , is the recorded pIC50 at or above 8?
NOT MET

Hi team, for O=C(O)c1ccc(S(=O)(=O)N(CCC(F)(F)F)c2cc3ccccc3s2)c(F)c1 , is the recorded pIC50 at or above 8?
NOT MET

Hi team, for Cc1c(N(CCCCC(F)(F)F)S(=O)(=O)CCC(=O)O)sc2ccccc12 , is the recorded pIC50 at or above 8?
NOT MET

Hi team, for O=S(=O)(c1ccccc1)N(Cc1cccnc1)c1sc2ccccc2c1Br , is the recorded pIC50 at or above 8?
NOT MET

Hi team, for O=S(=O)(c1cccc(-c2nnn[nH]2)c1)N(Cc1ccc(F)c(C(F)(F)F)c1)c1sc2ccccc2c1Cl , is the recorded pIC50 at or above 8?
NOT MET

Hi team, for Cc1ccccc1CN(c1sc2ccccc2c1Br)S(=O)(=O)c1ccccc1 , is the recorded pIC50 at or above 8?
NOT MET

Hi team, for CCCS(=O)(=O)N(Cc1ccc(F)c(F)c1)c1sc2ccccc2c1Br , is the recorded pIC50 at or above 8?
NOT MET

Hi team, for Cc1c(N(CCCCC(F)(F)F)S(=O)(=O)c2ccc(C(=O)[O-])cc2)sc2ccccc12.[Na+] , is the recorded pIC50 at or above 8?
MET

The measurements presented in this section are drawn from patent US9434711B2.
